Source of measurements: paper PMC6848146

test_target: CAMKK2-KD (kinase domain of CAMKK2) (Homo sapiens, UniProt Q96RR4)
Construct: the protein kinase domain (amino acids 161–449); hexahistidine (6xHis), TEV-cleavable; made in house
Sequence (Q96RR4 161-449): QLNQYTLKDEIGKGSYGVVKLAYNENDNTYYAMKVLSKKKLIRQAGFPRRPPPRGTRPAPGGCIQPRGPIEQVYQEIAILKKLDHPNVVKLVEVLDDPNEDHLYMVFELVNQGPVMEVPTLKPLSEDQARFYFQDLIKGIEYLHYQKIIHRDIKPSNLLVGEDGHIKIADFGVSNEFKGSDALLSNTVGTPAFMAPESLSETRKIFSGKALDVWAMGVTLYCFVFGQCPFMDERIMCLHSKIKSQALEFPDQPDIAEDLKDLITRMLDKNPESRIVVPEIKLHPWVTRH
experiment_notes: DSF thermal-shift screen, 384-well format
Format: binding
test_settings: 10 µM compound, 1 µM kinase, 0.1% DMSO, single measurement
observable: ΔTm at 10 µM (°C)

Would you please look over these solved cases?
compound	test_target	recorded_value
CCOc1ccn(-c2ccc(F)cc2)c(=O)c1C(=O)Nc1ccc(Oc2ccnc(N)c2Cl)c(F)c1	CAMKK2-KD (kinase domain of CAMKK2) (Homo sapiens, UniProt Q96RR4)	4.7
CCN1CCN(Cc2ccc(Nc3ncc(F)c(-c4cc(F)c5nc(C)n(C(C)C)c5c4)n3)nc2)CC1	CAMKK2-KD (kinase domain of CAMKK2) (Homo sapiens, UniProt Q96RR4)	6.2
CCS(=O)(=O)c1cccc(-c2cc(C(=O)NC3CCN(C)CC3)c(C)c3[nH]c4ncc(C)cc4c23)c1	CAMKK2-KD (kinase domain of CAMKK2) (Homo sapiens, UniProt Q96RR4)	4.7
Cc1cc(Nc2cc(CN3CCOCC3)c3nc(C)c(Cc4ccc(Cl)cc4F)n3n2)n[nH]1	CAMKK2-KD (kinase domain of CAMKK2) (Homo sapiens, UniProt Q96RR4)	4.3
CC[C@@H]1C(=O)N(C)c2cnc(Nc3ccc(C(=O)N[C@H]4CC[C@H](N5CCN(CC6CC6)CC5)CC4)cc3OC)nc2N1C(C)C	CAMKK2-KD (kinase domain of CAMKK2) (Homo sapiens, UniProt Q96RR4)	6

1 = O=C(NCCCNc1nc(Nc2cccc(NC(=O)N3CCCC3)c2)ncc1I)c1cccs1
2 = Cc1cc(Nc2ncc(Cl)c(Nc3ccccc3S(=O)(=O)C(C)C)n2)c(OC(C)C)cc1C1CCNCC1
Q: For the pair 1 and 2 , which member has the lower ΔTm at 10 µM number? Refer to your chosen entry by its label in the reply.
Result: 1
(1: 5.1 °C, 2: 8 °C)

P = C=CC(=O)Nc1cccc(Nc2nc(Nc3ccc(N4CCN(C(C)=O)CC4)cc3OC)ncc2C(F)(F)F)c1
Q = CNC(=O)c1nn(C)c2c1C(C)(C)Cc1cnc(Nc3ccc(N4CCN(C)CC4)cc3)nc1-2
Q: For the pair P and Q , which member has the lower ΔTm at 10 µM number? Refer to your chosen entry by its label in the reply.
Result: P
(P: 4.4 °C, Q: 7 °C)

A = CCOc1cc2ncc(C#N)c(Nc3ccc(F)c(Cl)c3)c2cc1NC(=O)/C=C/CN(C)C
B = CCS(=O)(=O)Nc1ccc2c(c1)/C(=C(/Nc1ccc(CN3CCCCC3)cc1)c1ccccc1)C(=O)N2
Q: Which item exceeds the other in ΔTm at 10 µM, A or B ? Refer to your chosen entry by its label in the reply.
Result: B

* * *

The following compounds have recorded pIC50 on CAMKK1-FL (Homo sapiens, UniProt Q8N5S9).
pIC50: −log10 of the molar value.
observable: pIC50

I = COCCOc1ccc2c(c1)ncn2-c1ccc2cccc(N3CCC(N)CC3)c2n1
II = CN(C)CCCn1cc(C2=C(c3c[nH]c4ccccc34)C(=O)NC2=O)c2ccccc21
III = CNC(=O)c1ccccc1Nc1nc(Nc2ccc(N3CCOCC3)cc2OC)ncc1Cl
Q: Please order the records by their reported pIC50, lowest number first. To answer, arrange all of the labels according to the requested order.
Result: II, III, I
(II: 5.59, III: 6.40, I: 6.91)

1 = CC1(COc2ccc3c(c2)ncn3-c2ccc3cccc(N4CCC(N)CC4)c3n2)COC1
2 = CC(C)[C@H](CO)Nc1nc(Nc2cc(N)cc(Cl)c2)c2ncn(C(C)C)c2n1
Q: For the pair 1 and 2 , which member has the lower pIC50 number? Refer to your chosen entry by its label in the reply.
Result: 2
